Tested on: 653999-131-R-J2-PDC complex spheroids, growth inhibition
Assay: Anticancer human tumor 653999-131-R-J2-PDC patient-derived lung adenocarcinoma cell line growth inhibition [RAS]
Details: second compound 0.3 µM; first compound 0.0949 µM; active compounds read low
observable: viability, T/C (%)
Hi! Could you send only the number? It should be in %, unit omitted.

Known results for molecules:
CC1(C)CCC(Nc2ncc(C(F)(F)F)c(-c3c[nH]c4c(P(C)(C)=O)c(C#N)ccc34)n2)CN1 (centres undefined) + CCn1c(-c2cccnc2C(C)OC)c2c3cc(ccc31)N1CCOC(CC(NC(=O)C(C(C)C)N(C)C(=O)C3(F)CCN(C(=O)C#CC(C)(C)N(C)C)CC3)C(=O)N3CCCC(N3)C(=O)OCC(C)(C)C2)C1	70.8
CC1(C)CCC(Nc2ncc(C(F)(F)F)c(-c3c[nH]c4c(P(C)(C)=O)c(C#N)ccc34)n2)CN1 (centres undefined) + CCn1c(-c2cc(N3CCN(C)CC3)cnc2C(C)OC)c2c3cc(ccc31)-c1csc(n1)CC(NC(=O)C1CC1C)C(=O)N1CCCC(N1)C(=O)OCC(C)(C)C2	13.7
CCc1c2c(nc3ccc(O)cc13)-c1cc3c(c(=O)n1C2)COC(=O)[C@]3(O)CC + CCn1c(-c2cc(N3CCN(C)CC3)cnc2C(C)OC)c2c3cc(ccc31)-c1csc(n1)CC(NC(=O)C1CC1C)C(=O)N1CCCC(N1)C(=O)OCC(C)(C)C2	6.54

Please find the next molecule below.
query: Consider the molecule shown here: CCc1c2c(nc3ccc(O)cc13)-c1cc3c(c(=O)n1C2)COC(=O)[C@]3(O)CC + CCn1c(-c2cccnc2C(C)OC)c2c3cc(ccc31)N1CCOC(CC(NC(=O)C(C(C)C)N(C)C(=O)C3(F)CCN(C(=O)C#CC(C)(C)N(C)C)CC3)C(=O)N3CCCC(N3)C(=O)OCC(C)(C)C2)C1 What is its recorded viability, T/C?
result: 17.6

###

# reported viability, T/C; entries follow
Test system: 653999-131-R-J2-PDC complex spheroids, growth inhibition
Experiment: Anticancer human tumor 653999-131-R-J2-PDC cell line growth inhibition [RAS];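 note: spheroids exposed to the agents for seven days before the readout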
Conditions: second compound 0.000949 µM; first compound 10 µM; active compounds read low
Just the number please, in %, no unit attached.

Solved entries (count: 4):
Cc1nc(N2CCC3(CC2)COC(C)C3N)c(CO)nc1Sc1ccnc(N)c1Cl (stereo not given) + CCn1c(-c2cc(N3CCN(C)CC3)cnc2C(C)OC)c2c3cc(ccc31)-c1csc(n1)CC(NC(=O)C1CC1C)C(=O)N1CCCC(N1)C(=O)OCC(C)(C)C2	76.8
CC(C)NCC(C(=O)N1CCN(c2ncnc3c2C(C)CC3O)CC1)c1ccc(Cl)cc1 (stereo not given) + CCn1c(-c2cccnc2C(C)OC)c2c3cc(ccc31)N1CCOC(CC(NC(=O)C(C(C)C)N(C)C(=O)C3(F)CCN(C(=O)C#CC(C)(C)N(C)C)CC3)C(=O)N3CCCC(N3)C(=O)OCC(C)(C)C2)C1	34.6
Cc1nc(N2CCC3(CC2)COC(C)C3N)c(CO)nc1Sc1ccnc(N)c1Cl (stereo not given) + CCn1c(-c2cccnc2C(C)OC)c2c3cc(ccc31)N1CCOC(CC(NC(=O)C(C(C)C)N(C)C(=O)C3(F)CCN(C(=O)C#CC(C)(C)N(C)C)CC3)C(=O)N3CCCC(N3)C(=O)OCC(C)(C)C2)C1	78.9
CC(=O)OC12COC1CC(O)C1(C)C(=O)C(O)C3=C(C)C(OC(=O)C(O)C(NC(=O)OC(C)(C)C)c4ccccc4)CC(O)(C(OC(=O)c4ccccc4)C21)C3(C)C (stereo not given) + CCn1c(-c2cccnc2C(C)OC)c2c3cc(ccc31)N1CCOC(CC(NC(=O)C(C(C)C)N(C)C(=O)C3(F)CCN(C(=O)C#CC(C)(C)N(C)C)CC3)C(=O)N3CCCC(N3)C(=O)OCC(C)(C)C2)C1	66.6

query: Which viability, T/C value belongs to CC(C)NCC(C(=O)N1CCN(c2ncnc3c2C(C)CC3O)CC1)c1ccc(Cl)cc1 (stereo not given) + CCn1c(-c2cc(N3CCN(C)CC3)cnc2C(C)OC)c2c3cc(ccc31)-c1csc(n1)CC(NC(=O)C1CC1C)C(=O)N1CCCC(N1)C(=O)OCC(C)(C)C2 ?
result: 26.9

query: Further, for CCC(CC)c1cc(NC2CCC(N)C2)n2nccc2n1 (stereo not given) + CCn1c(-c2cccnc2C(C)OC)c2c3cc(ccc31)N1CCOC(CC(NC(=O)C(C(C)C)N(C)C(=O)C3(F)CCN(C(=O)C#CC(C)(C)N(C)C)CC3)C(=O)N3CCCC(N3)C(=O)OCC(C)(C)C2)C1 ?
result: 22.1

query: And for NC1c2ccccc2OC12CCN(c1cnc3c(N4CCCc5ncccc54)n[nH]c3n1)CC2 (stereo not given) + CCn1c(-c2cc(N3CCN(C)CC3)cnc2C(C)OC)c2c3cc(ccc31)-c1csc(n1)CC(NC(=O)C1CC1C)C(=O)N1CCCC(N1)C(=O)OCC(C)(C)C2 ?
result: 63.4

query: Query CCC(CC)c1cc(NC2CCC(N)C2)n2nccc2n1 (stereo not given) + CCn1c(-c2cc(N3CCN(C)CC3)cnc2C(C)OC)c2c3cc(ccc31)-c1csc(n1)CC(NC(=O)C1CC1C)C(=O)N1CCCC(N1)C(=O)OCC(C)(C)C2 next
result: 15

query: Then this molecule: CC(=O)OC12COC1CC(O)C1(C)C(=O)C(O)C3=C(C)C(OC(=O)C(O)C(NC(=O)OC(C)(C)C)c4ccccc4)CC(O)(C(OC(=O)c4ccccc4)C21)C3(C)C (stereo not given) + CCn1c(-c2cc(N3CCN(C)CC3)cnc2C(C)OC)c2c3cc(ccc31)-c1csc(n1)CC(NC(=O)C1CC1C)C(=O)N1CCCC(N1)C(=O)OCC(C)(C)C2
result: 51.6

query: CC1(O)CCCC1n1c(=O)c(C(F)F)cc2cnc(NC3CCN(S(C)(=O)=O)CC3)nc21 (stereo not given) + CCn1c(-c2cccnc2C(C)OC)c2c3cc(ccc31)N1CCOC(CC(NC(=O)C(C(C)C)N(C)C(=O)C3(F)CCN(C(=O)C#CC(C)(C)N(C)C)CC3)C(=O)N3CCCC(N3)C(=O)OCC(C)(C)C2)C1 ?
result: 47.2

query: Would you mind doing CC(Nc1ccc2c(c1)OCCn1cc(N3C(=O)OCC3C(F)F)nc1-2)C(N)=O (stereo not given) + CCn1c(-c2cc(N3CCN(C)CC3)cnc2C(C)OC)c2c3cc(ccc31)-c1csc(n1)CC(NC(=O)C1CC1C)C(=O)N1CCCC(N1)C(=O)OCC(C)(C)C2 as well?
result: 18.5
